These measurements were taken from patent US20250163054A1.

molecular target: human TLR9 (Homo sapiens, UniProt Q9NR96); test: TLR7/8/9 Inhibition Reporter Assays (TLR9); conditions: HEK-Blue cells overexpressing human TLR9, SEAP reporter, stimulated with TLR9 ligand ODN2006
Sequence (Q9NR96 26-1032): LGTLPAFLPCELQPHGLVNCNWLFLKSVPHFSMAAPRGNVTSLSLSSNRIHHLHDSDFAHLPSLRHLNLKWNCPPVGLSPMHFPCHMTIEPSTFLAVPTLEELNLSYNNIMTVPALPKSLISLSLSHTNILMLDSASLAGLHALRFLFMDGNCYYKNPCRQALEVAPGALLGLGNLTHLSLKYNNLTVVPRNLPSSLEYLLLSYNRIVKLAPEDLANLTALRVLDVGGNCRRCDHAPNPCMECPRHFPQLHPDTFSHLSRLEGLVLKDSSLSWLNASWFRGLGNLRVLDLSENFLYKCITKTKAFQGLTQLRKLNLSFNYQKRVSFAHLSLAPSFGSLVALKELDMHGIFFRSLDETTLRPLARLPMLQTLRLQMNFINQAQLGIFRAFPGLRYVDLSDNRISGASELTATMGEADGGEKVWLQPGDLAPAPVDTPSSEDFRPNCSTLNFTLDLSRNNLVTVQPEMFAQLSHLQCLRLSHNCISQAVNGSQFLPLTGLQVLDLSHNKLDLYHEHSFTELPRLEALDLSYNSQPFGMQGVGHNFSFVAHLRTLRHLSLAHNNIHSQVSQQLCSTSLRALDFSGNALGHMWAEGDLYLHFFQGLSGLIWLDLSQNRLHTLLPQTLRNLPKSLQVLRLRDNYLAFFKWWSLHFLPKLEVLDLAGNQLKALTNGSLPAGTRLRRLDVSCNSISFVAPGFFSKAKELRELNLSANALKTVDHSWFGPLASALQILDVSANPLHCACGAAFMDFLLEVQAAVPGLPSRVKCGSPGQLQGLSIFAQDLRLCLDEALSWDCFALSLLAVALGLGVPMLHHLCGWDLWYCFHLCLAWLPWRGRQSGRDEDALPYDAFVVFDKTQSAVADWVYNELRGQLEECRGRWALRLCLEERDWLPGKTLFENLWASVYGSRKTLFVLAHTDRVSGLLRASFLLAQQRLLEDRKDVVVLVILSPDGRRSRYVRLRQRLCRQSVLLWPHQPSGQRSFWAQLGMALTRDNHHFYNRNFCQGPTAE
measured attribute: IC50 (nM)

Reference set (2 entries):
What IC50 value was documented for this molecule, Cc1cc(-c2nc3c(C)nc(-c4ccc(N5CCN(CC6CC6)CC5)cc4)cc3n2C)cc(C)n1 ?
460

Would you mind doing Cn1c(-c2ccc(S(C)(=O)=O)cc2)nc2c(C(F)(F)F)nc(C3CCN(C4CCN(CC(C)(C)O)CC4)CC3)cc21 as well?
130

[A] COc1ccc(-c2nc3c(C)nc(-c4ccc(N5CCN(C6CCC6)CC5)cc4)cc3n2C)cc1OC
[B] Cc1nc(-c2ccc(CN3CCC(N4CCOCC4)CC3)cc2)cc2c1nc(-c1ccc(S(C)(=O)=O)cc1)n2C1CC1
Identify the item whose IC50 is the smaller number: A or B # respond with the chosen item's label
B
(B: 270 nM, A: 820 nM)

----------
Target: human TLR7 (Homo sapiens)
Sequence (Q9NYK1 27-1049): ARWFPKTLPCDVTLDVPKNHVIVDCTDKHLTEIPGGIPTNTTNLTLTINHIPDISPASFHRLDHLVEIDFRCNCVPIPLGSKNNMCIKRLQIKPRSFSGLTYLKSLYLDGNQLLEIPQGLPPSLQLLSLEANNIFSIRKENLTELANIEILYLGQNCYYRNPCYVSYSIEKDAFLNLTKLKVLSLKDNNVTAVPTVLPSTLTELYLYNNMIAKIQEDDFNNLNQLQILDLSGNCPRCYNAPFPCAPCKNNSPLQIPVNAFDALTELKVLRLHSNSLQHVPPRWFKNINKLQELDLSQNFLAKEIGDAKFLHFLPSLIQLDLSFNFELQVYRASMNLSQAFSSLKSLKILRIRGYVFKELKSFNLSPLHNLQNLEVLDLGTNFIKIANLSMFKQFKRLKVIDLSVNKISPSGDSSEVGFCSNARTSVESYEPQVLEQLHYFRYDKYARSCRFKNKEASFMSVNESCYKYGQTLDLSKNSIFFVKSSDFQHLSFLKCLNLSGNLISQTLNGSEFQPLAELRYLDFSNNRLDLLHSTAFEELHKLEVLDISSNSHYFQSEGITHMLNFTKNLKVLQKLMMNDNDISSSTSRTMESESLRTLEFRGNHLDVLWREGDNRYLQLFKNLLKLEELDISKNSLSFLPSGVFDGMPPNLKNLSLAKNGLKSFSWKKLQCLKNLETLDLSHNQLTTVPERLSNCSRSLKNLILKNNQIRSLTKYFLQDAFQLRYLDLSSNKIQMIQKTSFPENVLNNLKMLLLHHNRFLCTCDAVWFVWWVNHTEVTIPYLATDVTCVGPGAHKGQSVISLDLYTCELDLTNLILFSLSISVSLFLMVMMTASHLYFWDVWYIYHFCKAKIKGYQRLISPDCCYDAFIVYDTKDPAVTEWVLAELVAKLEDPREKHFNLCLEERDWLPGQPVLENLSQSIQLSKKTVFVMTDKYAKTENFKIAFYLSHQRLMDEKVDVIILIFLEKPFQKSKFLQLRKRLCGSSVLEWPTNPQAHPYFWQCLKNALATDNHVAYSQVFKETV
Assay: TLR7/8/9 Inhibition Reporter Assays (TLR7)
Settings: HEK-Blue cells overexpressing human TLR7, SEAP reporter, stimulated with TLR7 ligand gardiquimod
Description: HEK-Blue™-cells (Invivogen) overexpressing human TLR7, TLR8 or TLR9 receptors were used for screening inhibitors of these receptors using an inducible SEAP (secreted embryonic alkaline phosphatase) reporter gene under the control of the IFN-β minimal promoter fused to five NF-κB and AP-1-binding sites. […] The percent inhibition is determined as the % reduction in the HEK-Blue signal present in wells treated with agonist plus DMSO alone compared to wells treated with a known inhibitor.
measured attribute: IC50 (nM)

[A] Cc1nc(-c2ccc(N3CCC4(CC3)CN(CC(C)C)C4)cc2)cc2c1nc(-c1ccc(S(C)(=O)=O)cc1)n2C
[B] COc1ccc(-c2nc3c(C)nc(-c4ccc(N5CC6(CN(CC(C)(C)O)C6)C5)cc4)cc3n2C)cc1OC
[C] Cc1nc(-c2ccc(C3CCNCC3)cc2)cc2c1nc(-c1ccc(S(C)(=O)=O)cc1)n2C
Ranking criterion: IC50, increasing numeric value. Items: as listed above. In your reply, arrange the labels in the requested order.
A, B, C
